Kindly supply the reported Vd values for the records listed here.
# Assay Overview: Volume of distribution in rat following administration of 10 mg/kg, p.o. and 10 mg/kg, i.v.
# Assay type: ADME, organism-based
# Condition: in vivo, iv
Give bare numbers, in L/kg.

Look over these answered cases.
1. CCCC(CCC)N1CCc2cn(-c3ccc(S(C)(=O)=O)cc3Cl)c3nc(C)cc1c23	66
2. CCCC(CCC)N1CCc2cn(-c3ccc(C)cc3Cl)c3nc(C)cc1c23	38
3. CCCC(CCC)N1CCc2cn(-c3ccc(OC)cc3C)c3nc(C)cc1c23	53

// query Please report the recorded Vd for `CCCC(CCC)N1CCc2cn(-c3ccc(OC)nc3OC)c3nc(C)cc1c23` .
// result 62
